The entries below come with measured growth values attached.
# System: A498 renal
# test_name: NCI-60 one-dose screen, 48 h (100 = growth as untreated, 0 = no growth, -100 = all killed)
# experimental_setup: 10 µM unless noted
The panel holds about 83,000 compounds, 20% with a hit somewhere; the sample as a whole holds those more often.
value_kind: growth (%)

1) C=C(C)[C@@H]1CC[C@]2(C(=O)O)CC[C@]3(C)[C@H](CC[C@@H]4[C@@]5(C)C[C@@H](Cc6cn(CCO[C@@H]7O[C@H](COC(C)=O)[C@H](OC(C)=O)[C@H](OC(C)=O)[C@H]7OC(C)=O)nn6)[C@H](O)C(C)(C)[C@@H]5CC[C@]43C)[C@@H]12 ... 70.3
2) Cn1c(-c2ccc(Br)cc2)c(O)c(=O)c2c(F)cccc21 ... 62.3
3) CC(C)N1CN2C(=S)NC3C2N(C1)C(=S)N3C (centres undefined) ... 102
4) Nc1ncnc2c1N=C(c1ccc3c(c1)OCO3)CC(c1cccc(Nc3ccnc4cc(Cl)ccc34)c1)N2 (centres undefined) ... 61.5
5) O=C1C(Cl)=C(Oc2ccccc2)C(=O)c2ccccc21 ... 98.7
6) CCS/C(Nc1ccccc1)=C(\C#N)C(=O)N/N=C/c1ccc(Cl)cc1Cl ... -2.1
7) O=C1C(Cl)=C(Nc2ccc(O)cc2)C(=O)N1Cc1ccc(Cl)cc1 ... 75.4
8) Cc1noc(C)c1C(=O)OCc1coc2ccccc2c1=O ... 104
9) COc1ccc(-c2nnc(-c3ccc4c(c3)nc(-c3ccncc3)n4C3CCCCC3)o2)cc1 ... 73.9
10) CCn1c(=S)sc2c(Nc3ccc(F)cc3)nc(-c3cccnc3)nc21 ... 93.7
11) COc1cc(-c2nc(SCCC(C)C)nc(Nc3ccccc3Cl)c2C#N)cc(OC)c1OC ... 85.3
12) C1=C(N2CCCC2)CCC1 ... 109
13) C=C(C)[C@@H]1CC[C@]2(C)[C@H](CC=C3[C@@H]4[C@H](C)[C@@H](C)CC[C@]4(CO)CC[C@]32C)[C@@]1(C)CCCN ... 72.5
14) CC1(c2ccccc2O)NN=C(/N=C/c2cccc([N+](=O)[O-])c2)N1C(Cc1c[nH]c2ccccc12)C(=O)O (centres undefined) ... 90.9
15) c1ccc(C2=NN[C@H](c3cn(-c4ccccc4)nc3-c3ccccc3)C2)cc1 ... 54.5
16) O=C(O)c1[nH]c(=O)[nH]c(=O)c1[N+](=O)[O-] ... 118
17) Cc1nc2c(=O)[nH]c(SCC(=O)Nc3cccc(F)c3)nc2[nH]c1=O ... 111
18) Fc1ccc(-c2nn(-c3ccccc3)cc2-c2nc3ccccc3o2)cc1 ... 45.4
19) CSc1nc2sc3c(c2c(=O)n1-c1ccc([N+](=O)[O-])cc1)CCCCC3 ... 80.2
